- system: pooled human IgG (human IgG1,2,3 and 4)
measure: Enzyme activity endpoint: Fc (ng/µL)

{"protein": "PRT-617 (protein) MQITSVWTKGVTPLTPEQFRYNNEDVIHAPYLPHQGWYDITKAFDGGDNLLCGAATAGNMLHWWFDQNKTEIEAYLSKYPEKQKIIFNNQELFDLRAAINSKDSQTNSQLFNYFRDKAFPNLSARQLGVMPDLVLDMFINGYYLNVFKTQSTDVNRPYQDPDKRGGIFDDVFKEGDQTTLLTARHDLKNGGLNDISTIIKQELQSGRALALSHTYANVSISHVINLWGADFNAEGNLEAIYVTDSDANQSIGMKKYKVGINAHGHVAISAKKIEGENIGAQVLGLFTLSSGKEIWQKLSLEHHHHHH", "measure": "Enzyme activity endpoint: Fc", "quantitative-result": 34}
{"protein": "PRT-672 (protein) MQITSVWTKGVTPPTPEQFTYQNEDVFHAPYIANQGWYDITKTFNGKDNLLCGAATAGNMLHWWFDQNKTEIENYLKKHPEKQKIIFNNQEMFDLRKAINTKDSQTNSALFEYFRDKAFPNLSARQLGVMPDHVLDMFINGYYLNVTKTQSTDVNRPYQTKDKRGGIFDHVFTRGDQSKLLTARHDLKNKTLNEISDLIKQELTEGKALALSHTYANVRINHVINLWGADFDAEGNLEAIYVTDSDSNASIGMKKYFVGVNSSGKVAISAKKIEDDNIGAQVLGLFTLSSGQDIWEQLSLEHHHHHH", "measure": "Enzyme activity endpoint: Fc", "quantitative-result": 443}
